Test: NCI Yeast Anticancer Drug Screen. Data for the mec2-1 strain (AID 157)
Details: S. cerevisiae mec2-1 strain, at 50.0 µM, active compounds read high
The panel holds about 79,000 compounds, 15% with a hit somewhere; the sample as a whole holds those more often.
measurement name: growth inhibition (%)
Please state the figure in %; there is no need to write the unit.

COC(=O)C1(OC(=O)Sc2ccccc2)CCN(C)CC1 | -5.95
COc1ccc(NC(=O)c2cc3cc(N=Nc4ccc(Br)cc4)ccc3oc2=O)cc1 | 14.4
CCOC(=O)C1=NN(c2ccccc2)C(=O)/C1=C\n1ccc(=O)[nH]c1=S | -43.8
COc1ccc(CC2=NCCc3cc(OCc4ccccc4)c(OC)cc32)cc1OCc1ccccc1 | 55

Q: Item `Clc1ccc(-c2nnc3c4ccccc4ccn23)cc1` : provide growth inhibition
Ans: -11.1

Q: Return reported growth inhibition. Input compound: COc1cc(C(c2c(O)c3ccccc3oc2=O)N2CCCC2)cc(OC)c1OC (stereo unspecified)
Ans: 5

----------
Test: NCI Yeast Anticancer Drug Screen. Data for the mec2-1 strain (AID 157)
Conditions: S. cerevisiae mec2-1 strain, at 50.0 µM, active compounds read high
Compounds without any hit were thinned out: in the full panel of roughly 79,000, 15% have a hit. Calls of active or inactive are those of the source. Rule as the data show it: active = growth inhibition above about 70%; inactive = the rest.
measurement name: growth inhibition

CCCCCCCCCCCc1cc(=O)c2c(O)cccc2o1 | -28.6% (inactive)
CCOC(=O)C1CC=CCC1C(=O)OCC (configuration not stated) | -7.5% (inactive)
C=C(C)C(O)C(O)c1c(OC)ccc2ccc(=O)oc12 (configuration not stated) | -4.25% (inactive)
CCOC(=O)c1[nH]cc(C)c1-c1c[nH]c2ccccc12 | 27.6% (inactive)
CC(CO)CCC(=O)C(C)C1CC2(C)CCC3C(CCC4CC(O)CCC43C)C2C12SCCS2 (configuration not stated) | 19.5% (inactive)
Cn1c2ccccc2c2nn3cnnc3nc21 | 41.3% (inactive)

Kindly consider the entry below.
Q: For the compound `c1cc2c3c(c1)ccc1cccc(c13)CC2` , give its measured growth inhibition value.
Ans: -34.1% (inactive)

----------
growth inhibition for assorted molecules
Assay: NCI Yeast Anticancer Drug Screen. Data for the mlh1 rad18 strain (AID 175)
Details: S. cerevisiae mlh1 rad18 strain growth inhibition; at 50.0 µM; active compounds read high
This is part of a sample that, as a whole, favours compounds with a hit. Of some 79,000 tested, about 15% had one in any assay.
Give your result in % as a bare value.

CC(=O)OC1CCC2(C)C(CCC3C2CC(OC(C)=O)C2(C)C(C(C)CCC(c4ccccc4)c4ccccc4)CCC32)C1 (stereo unspecified) | -1.55

Q: Please give the documented growth inhibition of `O=c1c(SCc2ccccc2)c(N2CCOCC2)cnn1-c1ccccc1`
Ans: 7.75

----------
Assay: NCI Yeast Anticancer Drug Screen. Data for the mlh1 rad18 strain (AID 175)
Settings: S. cerevisiae mlh1 rad18 strain growth inhibition; at 50.0 µM; active compounds read high
Description: Growth inhibition of yeast strains with defined genetic alterations is measured as a screen for potential anti-cancer activity. Selected strains with alterations in DNA damage repair or cell cycle control were exposed to compounds and growth inhibition was measured relative to vehicle treated controls. The strain used in this assay is mlh1 rad18
Compounds without any hit were thinned out: in the full panel of roughly 79,000, 15% have a hit.
measurement name: growth inhibition (%)
All answers are understood in %, so give the number only.

Consider the following illustrative entries.
COC(=O)c1ccccc1C1CN=NC12Cc1c(C)cccc1C2=O (stereo not drawn) | -13.7
Clc1cccc(NCNC2Nc3ccccc3N2)c1 | 27.9
CCC1N(C)CCCN1C | 6.55
COc1ccc([N+](=O)[O-])cc1NC(=O)c1ccc(Cl)cc1 | 34.8

Q: Give the reported growth inhibition for this molecule. O=C1C2C3C=CC(O3)C2C(=O)N1N=C1CCCCC1 (stereo not drawn)
Ans: 19.4

Q: Look up and report measured growth inhibition for this entry: CCSC(C#N)C(C)=O (stereo not drawn)
Ans: 42.6

Q: # return recorded growth inhibition for entry `CC(=O)CC(=O)OC(C)OC(=O)CC(C)=O`
Ans: 0.25

Q: Report growth inhibition for `CC(C)(C)C1=CC(=O)CCC1`
Ans: 5.65

Q: Determine its reported growth inhibition: `CCC/C=C(\CC)COC(=O)Nc1ccccc1`
Ans: -1.75

Q: Output growth inhibition of `CCOC(=O)c1nnc(C)[nH]c1=O`
Ans: 15

Q: Return the recorded growth inhibition value; entry: `O=C1OC(c2ccc([N+](=O)[O-])cc2)=N/C1=C\c1ccc(Cl)c(Cl)c1`
Ans: 46.2

Q: Output growth inhibition of `CCOC(=O)c1ccc(/C(C)=N/NC(N)=S)cc1`
Ans: -9.5

Q: Provide measured growth inhibition value, entry: `CCOC(=O)c1c(C)c2c(n1C)CC/C(=C\N1CCOCC1)C2=O`
Ans: 15.2

----------
Test: NCI Yeast Anticancer Drug Screen. Data for the mlh1 rad18 strain (AID 175)
Conditions: S. cerevisiae mlh1 rad18 strain growth inhibition; at 50.0 µM
This is part of a sample that, as a whole, favours compounds with a hit. Of some 79,000 tested, about 15% had one in any assay. Active and inactive are the calls of the source. Cut-off read from the data, not from the text of the source: active = growth inhibition above about 70%; inactive = the rest.
// allowed return values: yes (active), no (inactive)

C/C(=C\CNc1ncnc2c1ncn2CCC(=O)OC(C)(C)C)CO | no
CSC(=Nc1nnc(-c2ccc([N+](=O)[O-])cc2)s1)SC | no
CC(=O)OC(C)C(=O)OCCOc1ccccc1 (stereo not drawn) | no
[N-]=[N+]=NCN1C(=O)C2C3C=CC(C2C1=O)C1C2C(=O)N(CN=[N+]=[N-])C(=O)C2C31 (stereo not drawn) | no
C=CCCCCCCCCCCCCCC | no
O=S(=O)(O)Cc1ccc(CS(=O)(=O)O)cc1 | no
C/C(=C/C=C(c1ccccc1)c1ccccc1)C1CCC2C3CCC4CC5CCC4(C)C3(O5)C(=O)CC12C (stereo not drawn) | yes
OCCOCn1nc(-c2ccccc2)nc1-c1cnccn1 | no

Q: Call for entry O=C(CC(c1ccccc1)N1CCCCC1)OC(c1ccccc1)c1ccc(Br)cc1 (stereo not drawn) :
Ans: no

Q: Kindly provide the recorded test outcome for the following molecule: `COc1ccc(CCNC(=O)Cc2ccccc2CCO)cc1OC`
Ans: no

Q: Per the records of this test, what outcome belongs to `CN(C)CCN1C(=O)c2c(c3cccn3c3c2cnn3-c2ccccc2)C1=O` ?
Ans: no

Q: I would be grateful if you could indicate the recorded call for C=CCOC(=O)C1(O)c2ccccc2NC(=S)N1CC=C (stereo not drawn) .
Ans: no

Q: Would you mind telling me which call this test gave `O=c1cc(-c2ccccc2)oc2c(N=Nc3ccccc3)ccc(O)c12` ?
Ans: no

----------
Assay: NCI Yeast Anticancer Drug Screen. Data for the bub3 strain (AID 167)
Conditions: S. cerevisiae bub3 mutant strain, at 50.0 µM, active compounds read high
This is part of a sample that, as a whole, favours compounds with a hit. Of some 79,000 tested, about 15% had one in any assay.
Given measured growth inhibition, output Y if it is greater than or equal to 20% and N if not.

CCOC(=O)CC(=O)Nc1cc(C)cc(C)n1 | Y
CCCCCCN(CCCCCC)C1=CC(=O)C(=O)c2ccccc21 | Y
CC(=O)c1nc2ccccc2n1CC(=O)c1ccc([N+](=O)[O-])cc1 | N
COC1(OC)OC(c2ccc([N+](=O)[O-])cc2)=C(c2ccc([N+](=O)[O-])cc2)OC1(OC)OC | Y
O=C(CCN1CCC2CCC(C2)C1)c1ccc(Cl)cc1 (stereo not given) | Y

Q: Decide: is the reported value of growth inhibition for CN(C)CCN1CCc2c([nH]c3ccccc23)C1c1cccnc1 (stereo not given) equal to or greater than 20%?
Ans: N

Q: Would you say `COC1(NS(=O)(=O)c2ccc(C)cc2)CC1` shows growth inhibition at minimum 20%?
Ans: N

Q: Form field: growth inhibition at least 20%? Entry: `CCCCN(CCCC)CCCCCCCCCCCO`
Ans: Y

Q: Quick check: does `O=C(O)C(CCS)(c1ccccc1)c1ccccc1` have growth inhibition greater than or equal to 20%?
Ans: N

----------
Assay: NCI Yeast Anticancer Drug Screen. Data for the sgs1 mgt1 strain (AID 161);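 also: 0% = growth of cultures given vehicle only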
Conditions: S. cerevisiae sgs1 mgt1 strain, at 50.0 µM, active compounds read high
Procedure: Growth inhibition of yeast strains with defined genetic alterations is measured as a screen for potential anti-cancer activity. Selected strains with alterations in DNA damage repair or cell cycle control were exposed to compounds and growth inhibition was measured relative to vehicle treated controls. The strain used in this assay is sgs1 mgt1
Compounds without any hit were thinned out: in the full panel of roughly 79,000, 15% have a hit.
In this section we review reported growth inhibition values for a set of compounds.
Give the quantity in %, number only.

CCOc1cc2c(cc1C(CC)c1ccccc1)OCO2 (centres undefined) | 9.75
Cn1c(NCCN2CCCCC2)c(C(=O)/C=C/c2ccccc2)c(=O)n(C)c1=O | 8.65

Q: Provide one value: measured growth inhibition of `COc1ccc(C=Nc2c(N)[nH]c(=S)[nH]c2=O)cc1`
Ans: -4.15

Q: Report growth inhibition for `CCC[CH2][Ge]([Cl])([Cl])[CH2]CCC`
Ans: 30.9

Q: # return recorded growth inhibition for input `CCOc1ccc(CN(CCN2CCCCC2)c2ccccn2)cc1`
Ans: 23.4

Q: Give the reported growth inhibition for this compound. `C#CC(C)(C)Nc1ccccc1`
Ans: -6.6

Q: Indicate its recorded growth inhibition; the compound in question is `CS(=O)(=O)Nc1cccc(C(=O)NN)c1`
Ans: -3.4

Q: Supply reported growth inhibition belonging to this compound: `O=C(/C=C/CC(O)(c1ccccc1)c1ccccc1)Nc1ccccc1Cl`
Ans: -4.85

Q: Specify measured growth inhibition for `Cc1ccc2occ(/C=N/NC(N)=S)c(=O)c2c1` .
Ans: 12.3
